METHOD_DESCRIPTION: Pharmacokinetics in SD rats
Type: in vivo, rat
CONDITION_NOTES: male, SD, rat, plasma, po, 20 mg/kg, po 20 mg/kg, male SD rats
READOUT_LABEL: bioavailability (%)
Return type: number; implicit unit %.

Find the recorded bioavailability belonging to CNC(=O)c1cccc(C)c1Nc1nc(Nc2ccc(N3CCN(C4C5CC6CC4CC(O)(C6)C5)CC3)cc2OC)ncc1C(F)(F)F (stereo not shown) and report it.
45

Taken from paper PMC10528299.
